# credit: paper PMC3796545

B1: L-CICp [human] / ATX1 AXH (residues A567-K689 of human ATX1) [human] (parent complex)
chain 1: VFPWHSLVPFLAPSQ
chain 2: GAMAPPTLPPYFMKGSIIQLANGELKKVEDLKTEDFIQSAEISNDLKIDSSTVERIEDSHSPGVAVIQFAVGEHRAQVSVEVLVEYPFFVFGQGWSSCCPERTSQLFDLPCSKLSVGDVCISLTLK

- Variants of: B1
- test method notes: ITC; parent: 30 nM
I'd appreciate it if you could supply pKd values for the items below.
Value format note: pKd is -log10 of concentration (mol/L); just state the number.

-- ask Fill in the blank: the reported pKd of chain 1 VFPWHALVPFLAPSQ is ____.
-- reply 8.00

-- ask Ok, now chain 1 VFPWHSLVPFLGPSQ
-- reply 7.70

-- ask Same for chain 1 VFPWHSLVPFLAASQ
-- reply 7.70

-- ask Follow-up item: chain 1 VFPWASLVPFLAPSQ
-- reply 7.30

-- ask Do the same for chain 1 VFPWHSLVAFLAPSQ please
-- reply 7.40

-- ask Next up: chain 1 VFAWHSLVPFLAPSQ
-- reply 7.40

-- ask Note, next up: chain 1 VAPWHSLVPFLAPSQ
-- reply 7.52
